Source of measurements: ChEMBL document CHEMBL2046303

assay: Half life in Sprague-Dawley rat at 5 mg/kg, iv; type: ADME, organism-based; design: dose 5 mg/kg, route intravenous; conditions: in vivo
property: half-life (min)

As a guide, the following entries are already answered.
1. NS(=O)(=O)c1cccc(C[C@H](NC(=O)c2c(Cl)cc3c(c2Cl)CCN(C(=O)c2ccc4ccoc4c2)C3)C(=O)O)c1; 61.8
2. CP(C)(=O)c1cccc(C[C@H](NC(=O)c2c(Cl)cc3c(c2Cl)CCN(C(=O)c2ccc4ccoc4c2)C3)C(=O)O)c1; 22.2
3. CS(=O)(=O)c1ccc(C[C@H](NC(=O)c2c(Cl)cc3c(c2Cl)CCN(C(=O)c2ccc4ccoc4c2)C3)C(=O)O)o1; 25.8
4. CS(=O)(=O)c1cccc(C[C@H](NC(=O)c2c(Cl)cc3c(c2Cl)CCN(C(=O)c2ccc4ccoc4c2)C3)C(=O)O)c1; 46.8

(P) CS(=O)(=O)c1ccc(C[C@H](NC(=O)c2c(Cl)cc3c(c2Cl)CCN(C(=O)c2ccc(Cl)cc2)C3)C(=O)O)o1
(Q) CS(=O)(=O)c1cncc(C[C@H](NC(=O)c2c(Cl)cc3c(c2Cl)CCN(C(=O)c2ccc4ccoc4c2)C3)C(=O)O)c1
Task: From the items above, decide which of P and Q has the lower half-life reading. Refer to your chosen item by its label in the answer.
Output: P

(P) C[S+]([O-])c1cncc(CC(NC(=O)c2c(Cl)cc3c(c2Cl)CCN(C(=O)c2ccc4ccoc4c2)C3)C(=O)O)c1 (racemic)
(Q) CS(=O)(=O)c1cc(F)cc(C[C@H](NC(=O)c2c(Cl)cc3c(c2Cl)CCN(C(=O)c2ccc4ccoc4c2)C3)C(=O)O)c1
Task: Which entry has a larger number for half-life, P or Q ? Mark your selection by writing its label.
Output: Q
(Q: 39 min, P: 16.2 min)

====

target: Intercellular adhesion molecule (ICAM-1), Integrin alpha-L/beta-2 (Homo sapiens, UniProt P05107+P05362+P20701); test: Antagonist activity at LFA-1/ICAM-1 in human HuT-78 T-cells assessed as inhibition of cell adhesion after 1 hr by p-nitrophenyl n-acetyl-beta-D-glucosaminide method; type: functional, cell-based, HuT78
Sequence (P20701 whole entry): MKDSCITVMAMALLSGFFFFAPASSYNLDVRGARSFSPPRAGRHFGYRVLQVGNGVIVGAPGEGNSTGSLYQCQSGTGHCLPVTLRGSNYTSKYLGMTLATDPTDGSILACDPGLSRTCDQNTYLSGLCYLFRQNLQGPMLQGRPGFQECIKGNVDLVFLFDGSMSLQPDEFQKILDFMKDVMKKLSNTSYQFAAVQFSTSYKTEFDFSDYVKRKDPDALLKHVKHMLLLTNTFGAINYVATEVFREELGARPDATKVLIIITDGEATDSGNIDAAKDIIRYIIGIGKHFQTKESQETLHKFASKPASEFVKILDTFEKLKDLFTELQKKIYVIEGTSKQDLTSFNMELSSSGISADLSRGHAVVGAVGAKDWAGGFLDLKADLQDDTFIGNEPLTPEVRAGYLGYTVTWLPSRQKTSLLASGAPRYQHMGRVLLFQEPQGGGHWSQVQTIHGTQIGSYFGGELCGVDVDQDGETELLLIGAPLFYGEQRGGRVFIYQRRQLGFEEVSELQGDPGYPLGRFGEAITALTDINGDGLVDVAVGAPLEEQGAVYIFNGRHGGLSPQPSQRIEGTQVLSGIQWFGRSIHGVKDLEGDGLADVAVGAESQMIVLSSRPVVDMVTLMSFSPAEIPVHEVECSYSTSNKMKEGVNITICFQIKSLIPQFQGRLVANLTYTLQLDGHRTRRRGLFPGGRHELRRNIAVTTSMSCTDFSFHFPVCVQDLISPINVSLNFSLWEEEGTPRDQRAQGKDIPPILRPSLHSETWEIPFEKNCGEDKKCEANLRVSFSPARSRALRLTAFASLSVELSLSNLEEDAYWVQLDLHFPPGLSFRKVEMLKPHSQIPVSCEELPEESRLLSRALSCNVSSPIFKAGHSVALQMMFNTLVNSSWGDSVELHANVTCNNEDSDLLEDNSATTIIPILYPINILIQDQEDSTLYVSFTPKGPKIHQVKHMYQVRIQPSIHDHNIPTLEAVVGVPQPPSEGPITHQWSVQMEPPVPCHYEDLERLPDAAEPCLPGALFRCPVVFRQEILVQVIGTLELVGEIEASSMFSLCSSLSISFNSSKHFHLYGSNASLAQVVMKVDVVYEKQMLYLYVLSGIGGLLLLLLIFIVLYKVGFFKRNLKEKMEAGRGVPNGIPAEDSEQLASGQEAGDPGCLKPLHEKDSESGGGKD
Sequence (P05362 whole entry): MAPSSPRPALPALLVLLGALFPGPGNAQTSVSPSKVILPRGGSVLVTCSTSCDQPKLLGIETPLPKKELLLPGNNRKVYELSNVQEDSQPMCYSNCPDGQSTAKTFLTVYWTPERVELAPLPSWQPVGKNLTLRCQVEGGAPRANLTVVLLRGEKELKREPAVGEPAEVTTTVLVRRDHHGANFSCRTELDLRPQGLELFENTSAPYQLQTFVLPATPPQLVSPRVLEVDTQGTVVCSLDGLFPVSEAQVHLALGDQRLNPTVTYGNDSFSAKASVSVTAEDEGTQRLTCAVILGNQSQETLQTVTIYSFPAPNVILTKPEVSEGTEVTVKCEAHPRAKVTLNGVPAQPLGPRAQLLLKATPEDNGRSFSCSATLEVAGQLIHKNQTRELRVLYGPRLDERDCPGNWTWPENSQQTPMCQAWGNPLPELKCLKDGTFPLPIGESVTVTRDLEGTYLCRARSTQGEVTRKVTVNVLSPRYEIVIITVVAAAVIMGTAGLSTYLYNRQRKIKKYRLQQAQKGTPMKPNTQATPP
Sequence (P05107 whole entry): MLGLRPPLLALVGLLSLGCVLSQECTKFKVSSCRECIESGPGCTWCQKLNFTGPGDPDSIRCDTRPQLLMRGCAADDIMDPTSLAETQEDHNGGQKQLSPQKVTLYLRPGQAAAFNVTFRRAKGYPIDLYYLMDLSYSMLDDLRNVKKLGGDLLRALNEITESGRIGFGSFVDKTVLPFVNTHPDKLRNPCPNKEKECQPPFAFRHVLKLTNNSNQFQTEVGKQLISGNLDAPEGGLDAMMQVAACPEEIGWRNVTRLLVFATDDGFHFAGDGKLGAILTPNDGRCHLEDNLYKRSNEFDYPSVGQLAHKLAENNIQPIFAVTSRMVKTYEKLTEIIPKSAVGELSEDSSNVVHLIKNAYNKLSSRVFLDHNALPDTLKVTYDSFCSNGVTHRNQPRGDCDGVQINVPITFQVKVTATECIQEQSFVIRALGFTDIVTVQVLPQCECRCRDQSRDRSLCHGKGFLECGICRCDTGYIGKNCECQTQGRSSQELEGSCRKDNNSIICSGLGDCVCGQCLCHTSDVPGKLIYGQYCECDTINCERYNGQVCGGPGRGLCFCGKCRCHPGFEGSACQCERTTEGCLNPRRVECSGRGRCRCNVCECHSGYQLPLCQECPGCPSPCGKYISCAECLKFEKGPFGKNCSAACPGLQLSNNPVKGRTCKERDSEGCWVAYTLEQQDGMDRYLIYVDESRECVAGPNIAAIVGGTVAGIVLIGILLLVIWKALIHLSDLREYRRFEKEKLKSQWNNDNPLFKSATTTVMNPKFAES
pIC50: −log10 of the molar value.
property: pIC50

1) CC(C)c1cccc(C[C@H](NC(=O)c2c(Cl)cc3c(c2Cl)CCN(C(=O)c2ccc(Cl)cc2)C3)C(=O)O)c1; 8.00
2) CS(=O)(=O)c1cccc(C[C@H](NC(=O)c2c(Cl)cc3c(c2Cl)CCN(C(=O)c2ccc4ccoc4c2)C3)C(=O)O)c1; 8.05
3) CS(=O)(=O)c1cccc(C[C@H](NC(=O)c2c(Cl)cc3c(c2Cl)CCN(C(=O)c2ccc(Cl)cc2)C3)C(=O)O)c1; 8.52

(I) CCS(=O)(=O)c1cccc(C[C@H](NC(=O)c2c(Cl)cc3c(c2Cl)CCN(C(=O)c2ccc4ccoc4c2)C3)C(=O)O)c1
(II) CS(=O)(=O)c1cncc(C[C@H](NC(=O)c2c(Cl)cc3c(c2Cl)CCN(C(=O)c2ccc4ccoc4c2)C3)C(=O)O)c1
(III) CS(=O)(=O)c1cc(Cl)cc(C[C@H](NC(=O)c2c(Cl)cc3c(c2Cl)CCN(C(=O)c2ccc4ccoc4c2)C3)C(=O)O)c1
(IV) CS(=O)(=O)c1ccc(Cl)c(C[C@H](NC(=O)c2c(Cl)cc3c(c2Cl)CCN(C(=O)c2ccc4ccoc4c2)C3)C(=O)O)c1
Task: Reorder: pIC50, max to min. Record the ranking as a list of labels in the requested order.
Output: I, III, II, IV
